Reference for the values: patent US20240376185A1

target: tetanus neurotoxin (TeNT), authentic tetanus holotoxin (Clostridium tetani, UniProt P04958 2-1315); assay: competition ELISA on TeNT, binder biotinylated; competitor SVT16L; note: test concentration or dose not given here
Sequence (P04958 2-457 limits assumed, chain 1 of 2): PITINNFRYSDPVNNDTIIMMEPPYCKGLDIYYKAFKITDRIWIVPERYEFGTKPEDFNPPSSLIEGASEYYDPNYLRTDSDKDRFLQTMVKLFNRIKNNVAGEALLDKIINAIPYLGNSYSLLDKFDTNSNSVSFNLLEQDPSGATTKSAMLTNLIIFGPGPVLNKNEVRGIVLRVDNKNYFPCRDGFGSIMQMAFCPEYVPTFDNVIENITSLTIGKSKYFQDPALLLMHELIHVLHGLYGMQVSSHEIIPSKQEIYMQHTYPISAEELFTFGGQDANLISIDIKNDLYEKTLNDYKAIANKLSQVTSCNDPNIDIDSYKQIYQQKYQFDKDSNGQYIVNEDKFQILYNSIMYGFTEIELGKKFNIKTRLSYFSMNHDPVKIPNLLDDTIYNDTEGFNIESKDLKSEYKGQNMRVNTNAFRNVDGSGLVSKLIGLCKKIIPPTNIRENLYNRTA
Sequence (P04958 458-1315 limits assumed, chain 2 of 2): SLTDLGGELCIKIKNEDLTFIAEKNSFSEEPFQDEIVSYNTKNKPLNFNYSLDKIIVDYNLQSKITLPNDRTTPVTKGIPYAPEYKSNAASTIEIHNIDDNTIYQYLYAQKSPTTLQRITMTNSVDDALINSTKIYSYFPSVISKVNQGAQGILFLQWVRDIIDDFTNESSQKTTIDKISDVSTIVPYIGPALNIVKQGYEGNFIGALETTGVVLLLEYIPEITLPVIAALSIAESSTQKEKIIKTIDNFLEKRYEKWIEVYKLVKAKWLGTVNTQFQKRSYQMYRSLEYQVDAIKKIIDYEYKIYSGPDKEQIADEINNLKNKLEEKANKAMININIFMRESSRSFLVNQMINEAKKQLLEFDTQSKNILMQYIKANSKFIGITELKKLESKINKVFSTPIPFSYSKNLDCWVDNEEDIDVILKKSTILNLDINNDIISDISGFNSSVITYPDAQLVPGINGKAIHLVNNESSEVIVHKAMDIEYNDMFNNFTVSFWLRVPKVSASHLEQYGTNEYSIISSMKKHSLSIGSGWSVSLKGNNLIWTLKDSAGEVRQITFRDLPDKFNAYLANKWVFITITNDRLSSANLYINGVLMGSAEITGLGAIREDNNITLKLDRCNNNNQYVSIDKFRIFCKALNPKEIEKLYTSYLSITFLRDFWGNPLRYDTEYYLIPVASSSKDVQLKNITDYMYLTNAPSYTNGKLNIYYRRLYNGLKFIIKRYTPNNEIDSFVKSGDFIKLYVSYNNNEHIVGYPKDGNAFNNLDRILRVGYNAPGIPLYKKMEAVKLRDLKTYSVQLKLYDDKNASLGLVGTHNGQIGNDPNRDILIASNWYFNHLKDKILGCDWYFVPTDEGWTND
The reader will find reported % inhibition of binding values listed item by item below.
Reply numerically in %, unit not repeated.

[
  {
    "binder": "SVT03L (VHH) VHH: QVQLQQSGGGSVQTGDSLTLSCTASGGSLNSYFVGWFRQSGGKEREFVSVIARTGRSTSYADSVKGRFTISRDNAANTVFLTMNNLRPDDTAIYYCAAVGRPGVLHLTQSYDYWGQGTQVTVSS",
    "uom": "%",
    "% inhibition of binding": 18
  }
]

Returns the measured % inhibition of binding for the input binder. Input: SVT02L (VHH) VHH: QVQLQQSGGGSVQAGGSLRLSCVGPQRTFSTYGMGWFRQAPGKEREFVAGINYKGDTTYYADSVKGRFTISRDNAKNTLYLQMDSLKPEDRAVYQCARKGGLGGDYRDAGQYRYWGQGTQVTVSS
26

For the binder SVT15L-3FW4M (VHH) VHH: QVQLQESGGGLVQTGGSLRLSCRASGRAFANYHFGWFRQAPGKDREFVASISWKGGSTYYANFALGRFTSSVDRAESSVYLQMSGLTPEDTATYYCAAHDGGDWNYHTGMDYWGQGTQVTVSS , what % inhibition of binding is on record?
3

Could you share which % inhibition of binding value was measured for SVT06L (VHH) VHH: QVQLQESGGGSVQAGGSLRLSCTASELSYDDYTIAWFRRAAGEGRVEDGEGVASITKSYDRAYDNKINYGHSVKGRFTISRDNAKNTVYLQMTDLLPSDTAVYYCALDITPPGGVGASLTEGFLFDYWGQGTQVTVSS ?
-3
